Just for reference, ChEMBL document CHEMBL1149164 is where these values come from.

- TESTED SYSTEM: Vasopressin V1a receptor (Homo sapiens)
- ASSAY NOTES: Binding affinity against human vasopressin V1a receptor was determined by using plasma membranes from CHO cells stably transfected with VP/OT receptors
Bridge positions count the residues as written; N and C are the ends. Square brackets hold non-standard residues; d marks the D form. Peptide text beside a SMILES is read from it. Cha = N[C@@H](CC1CCCCC1)C(=O)O; Mpa = O=C(O)CCS
MEASUREMENT NAME: pKi
Give bare numbers, as −log10 of the molar value.

{"columns": ["COMPOUND", "pKi"],
 "data": [
  ["CCCC[C@@H]1NC(=O)[C@H](Cc2ccccc2)NC(=O)[C@H](Cc2ccc(O)cc2)NC(=O)CCSSC[C@@H](C(=O)N2CCC[C@H]2C(=O)N[C@@H](CCCN=C(N)N)C(=O)NCC(N)=O)NC(=O)[C@H](CC(N)=O)NC1=O (stereo in doubt)", 7.55]
]}

*Q* Which pKi is reported for this compound? NC(=O)CNC(=O)[C@H](CCCN=C(N)N)NC(=O)[C@@H]1CCCN1C(=O)[C@@H]1CSSCCC(=O)N[C@@H](Cc2ccc(O)cc2)C(=O)N[C@@H](Cc2ccccc2)C(=O)N[C@@H](CC2CCCCC2)C(=O)N[C@@H](CC(N)=O)C(=O)N1 ([Mpa]YF[Cha]NCPRG-NH2; disulfide 1-6)
*A* 6.82

---

- TESTED SYSTEM: Vasopressin V2 receptor (Homo sapiens, UniProt P30518)
- Sequence (P30518 whole entry): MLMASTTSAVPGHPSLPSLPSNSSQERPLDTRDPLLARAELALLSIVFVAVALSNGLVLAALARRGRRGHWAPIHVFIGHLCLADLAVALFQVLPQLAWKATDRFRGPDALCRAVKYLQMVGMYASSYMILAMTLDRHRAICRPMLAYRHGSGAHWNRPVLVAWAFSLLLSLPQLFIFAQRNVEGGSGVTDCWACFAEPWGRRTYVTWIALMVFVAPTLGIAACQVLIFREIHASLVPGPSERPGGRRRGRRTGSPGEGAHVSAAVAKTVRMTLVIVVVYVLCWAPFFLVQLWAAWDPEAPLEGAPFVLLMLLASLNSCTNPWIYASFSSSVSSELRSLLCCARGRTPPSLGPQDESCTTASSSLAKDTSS
- ASSAY NOTES: Binding affinity against human vasopressin V2 receptor was determined by using plasma membranes from CHO cells stably transfected with VP/OT receptors
Bridge positions count the residues as written; N and C are the ends. Square brackets hold non-standard residues; d marks the D form. Peptide text beside a SMILES is read from it. Cha = N[C@@H](CC1CCCCC1)C(=O)O; Mpa = O=C(O)CCS
Ki strictly under 600 nM means label 1; at 600 nM or over means label 0.

{"columns": ["COMPOUND", "TESTED SYSTEM", "CLASS LABEL"],
 "data": [
  ["CCCC[C@@H]1NC(=O)[C@H](Cc2ccccc2)NC(=O)[C@H](Cc2ccc(O)cc2)NC(=O)CCSSC[C@@H](C(=O)N2CCC[C@H]2C(=O)N[C@@H](CCCN=C(N)N)C(=O)NCC(N)=O)NC(=O)[C@H](CC(N)=O)NC1=O (stereo in doubt)", "Vasopressin V2 receptor (Homo sapiens, UniProt P30518)", "label 1"],
  ["CC[C@H](C)[C@@H]1NC(=O)[C@H](Cc2ccccc2)NC(=O)[C@H](Cc2ccc(O)cc2)NC(=O)CCSSC[C@@H](C(=O)N2CCC[C@H]2C(=O)N[C@@H](CCCN=C(N)N)C(=O)NCC(N)=O)NC(=O)[C@H](CC(N)=O)NC1=O", "Vasopressin V2 receptor (Homo sapiens, UniProt P30518)", "label 1"],
  ["NCCC[C@@H]1NC(=O)[C@H](Cc2ccccc2)NC(=O)[C@H](Cc2ccc(O)cc2)NC(=O)CCSSC[C@@H](C(=O)N2CCC[C@H]2C(=O)N[C@@H](CCCN=C(N)N)C(=O)NCC(N)=O)NC(=O)[C@H](CC(N)=O)NC1=O (stereo in doubt)", "Vasopressin V2 receptor (Homo sapiens, UniProt P30518)", "label 0"],
  ["NC(=O)CNC(=O)[C@H](CCCN=C(N)N)NC(=O)[C@@H]1CCCN1C(=O)[C@@H]1CSSCCC(=O)N[C@@H](Cc2ccc(O)cc2)C(=O)N[C@@H](Cc2ccccc2)C(=O)N[C@@H](CC2CCCCC2)C(=O)N[C@@H](CC(N)=O)C(=O)N1 ([Mpa]YF[Cha]NCPRG-NH2; disulfide 1-6)", "Vasopressin V2 receptor (Homo sapiens, UniProt P30518)", "label 0"],
  ["NC(=O)CNC(=O)[C@H](CCCN=C(N)N)NC(=O)[C@@H]1CCCN1C(=O)[C@@H]1CSSCCC(=O)N[C@@H](Cc2ccc(O)cc2)C(=O)N[C@@H](Cc2ccccc2)C(=O)N[C@@H](Cc2cccs2)C(=O)N[C@@H](CC(N)=O)C(=O)N1 (stereo in doubt)", "Vasopressin V2 receptor (Homo sapiens, UniProt P30518)", "label 0"],
  ["N=C(N)NCCC[C@@H]1NC(=O)[C@H](Cc2ccccc2)NC(=O)[C@H](Cc2ccc(O)cc2)NC(=O)CCSSC[C@@H](C(=O)N2CCC[C@H]2C(=O)N[C@@H](CCCN=C(N)N)C(=O)NCC(N)=O)NC(=O)[C@H](CC(N)=O)NC1=O (stereo in doubt)", "Vasopressin V2 receptor (Homo sapiens, UniProt P30518)", "label 1"],
  ["NCCCC[C@@H]1NC(=O)[C@H](Cc2ccccc2)NC(=O)[C@H](Cc2ccc(O)cc2)NC(=O)CCSSC[C@@H](C(=O)N2CCC[C@H]2C(=O)N[C@@H](CCCN=C(N)N)C(=O)NCC(N)=O)NC(=O)[C@H](CC(N)=O)NC1=O (stereo in doubt)", "Vasopressin V2 receptor (Homo sapiens, UniProt P30518)", "label 0"],
  ["CC(C)C[C@@H]1NC(=O)[C@H](Cc2ccccc2)NC(=O)[C@H](Cc2ccc(O)cc2)NC(=O)CCSSC[C@@H](C(=O)N2CCC[C@H]2C(=O)N[C@@H](CCCN=C(N)N)C(=O)NCC(N)=O)NC(=O)[C@H](CC(N)=O)NC1=O", "Vasopressin V2 receptor (Homo sapiens, UniProt P30518)", "label 1"],
  ["NC(=O)CNC(=O)[C@H](CCCN=C(N)N)NC(=O)[C@@H]1CCCN1C(=O)[C@@H]1CSSCCC(=O)N[C@@H](Cc2ccc(O)cc2)C(=O)N[C@@H](Cc2ccccc2)C(=O)NCC(=O)N[C@@H](CC(N)=O)C(=O)N1", "Vasopressin V2 receptor (Homo sapiens, UniProt P30518)", "label 1"],
  ["NC(=O)CNC(=O)[C@H](CCCN=C(N)N)NC(=O)[C@@H]1CCCN1C(=O)[C@@H]1CSSCCC(=O)N[C@@H](Cc2ccc(O)cc2)C(=O)N[C@@H](Cc2ccccc2)C(=O)N[C@@H](Cc2ccc(O)cc2)C(=O)N[C@@H](CC(N)=O)C(=O)N1 (stereo in doubt)", "Vasopressin V2 receptor (Homo sapiens, UniProt P30518)", "label 0"]
]}

# ---- query compound ----
*Q* Please indicate whether the reported Ki of NCC[C@@H]1NC(=O)[C@H](Cc2ccccc2)NC(=O)[C@H](Cc2ccc(O)cc2)NC(=O)CCSSC[C@@H](C(=O)N2CCC[C@H]2C(=O)N[C@@H](CCCN=C(N)N)C(=O)NCC(N)=O)NC(=O)[C@H](CC(N)=O)NC1=O (stereo in doubt) is strictly below 600 nM.
*A* label 1

---

- TESTED SYSTEM: Vasopressin V1a receptor (Homo sapiens, UniProt P37288)
- Sequence (P37288 whole entry): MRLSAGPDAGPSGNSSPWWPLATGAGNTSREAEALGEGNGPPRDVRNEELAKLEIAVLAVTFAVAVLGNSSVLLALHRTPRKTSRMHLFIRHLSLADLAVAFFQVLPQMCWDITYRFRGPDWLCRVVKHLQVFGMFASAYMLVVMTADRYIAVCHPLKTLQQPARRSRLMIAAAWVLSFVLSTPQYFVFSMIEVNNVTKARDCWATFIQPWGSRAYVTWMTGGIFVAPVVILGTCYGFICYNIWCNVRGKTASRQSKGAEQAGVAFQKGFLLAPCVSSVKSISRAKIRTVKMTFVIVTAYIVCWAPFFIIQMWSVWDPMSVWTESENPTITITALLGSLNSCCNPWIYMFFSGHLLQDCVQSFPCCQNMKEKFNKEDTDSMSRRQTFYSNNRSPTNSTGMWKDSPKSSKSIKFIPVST
- ASSAY NOTES: Binding affinity against human vasopressin V1a receptor was determined by using plasma membranes from CHO cells stably transfected with VP/OT receptors
Bridge positions count the residues as written; N and C are the ends. Square brackets hold non-standard residues; d marks the D form. Peptide text beside a SMILES is read from it. Mpa = O=C(O)CCS
MEASUREMENT NAME: Ki
Write down the value, and be sure its unit follows.

Some compounds with known Ki results, for comparison:
{"columns": ["COMPOUND", "MEASUREMENT NAME", "OBSERVED"],
 "data": [
  ["CC(C)[C@@H]1NC(=O)[C@H](Cc2ccccc2)NC(=O)[C@H](Cc2ccc(O)cc2)NC(=O)CCSSC[C@@H](C(=O)N2CCC[C@H]2C(=O)N[C@@H](CCCN=C(N)N)C(=O)NCC(N)=O)NC(=O)[C@H](CC(N)=O)NC1=O ([Mpa]YFVNCPRG-NH2; disulfide 1-6)", "Ki", "11.4 nM"],
  ["NC(=O)CNC(=O)[C@H](CCCN=C(N)N)NC(=O)[C@@H]1CCCN1C(=O)[C@@H]1CSSCCC(=O)N[C@@H](Cc2ccc(O)cc2)C(=O)N[C@@H](Cc2ccccc2)C(=O)N[C@@H](Cc2ccc(O)cc2)C(=O)N[C@@H](CC(N)=O)C(=O)N1 (stereo in doubt)", "Ki", "36.9 nM"],
  ["N=C(N)NCCC[C@@H]1NC(=O)[C@H](Cc2ccccc2)NC(=O)[C@H](Cc2ccc(O)cc2)NC(=O)CCSSC[C@@H](C(=O)N2CCC[C@H]2C(=O)N[C@@H](CCCN=C(N)N)C(=O)NCC(N)=O)NC(=O)[C@H](CC(N)=O)NC1=O (stereo in doubt)", "Ki", "54.2 nM"],
  ["C[C@@H]1NC(=O)[C@H](Cc2ccccc2)NC(=O)[C@H](Cc2ccc(O)cc2)NC(=O)CCSSC[C@@H](C(=O)N2CCC[C@H]2C(=O)N[C@@H](CCCN=C(N)N)C(=O)NCC(N)=O)NC(=O)[C@H](CC(N)=O)NC1=O", "Ki", "21.8 nM"],
  ["NC(=O)CNC(=O)[C@H](CCCN=C(N)N)NC(=O)[C@@H]1CCCN1C(=O)[C@@H]1CSSCCC(=O)N[C@@H](Cc2ccc(O)cc2)C(=O)N[C@@H](Cc2ccccc2)C(=O)N[C@@H](CO)C(=O)N[C@@H](CC(N)=O)C(=O)N1 (stereo in doubt)", "Ki", "13 nM"]
]}

Provide reported Ki for each item, in the same order as listed.
1. CCC[C@@H]1NC(=O)[C@H](Cc2ccccc2)NC(=O)[C@H](Cc2ccc(O)cc2)NC(=O)CCSSC[C@@H](C(=O)N2CCC[C@H]2C(=O)N[C@@H](CCCN=C(N)N)C(=O)NCC(N)=O)NC(=O)[C@H](CC(N)=O)NC1=O (stereo in doubt)
2. NC(=O)CNC(=O)[C@H](CCCN=C(N)N)NC(=O)[C@@H]1CCCN1C(=O)[C@@H]1CSSCCC(=O)N[C@@H](Cc2ccc(O)cc2)C(=O)N[C@@H](Cc2ccccc2)C(=O)N[C@@H](CCC(=O)O)C(=O)N[C@@H](CC(N)=O)C(=O)N1 (stereo in doubt)
3. NC(=O)CNC(=O)[C@H](CCCN=C(N)N)NC(=O)[C@@H]1CCCN1C(=O)[C@@H]1CSSCCC(=O)N[C@@H](Cc2ccc(O)cc2)C(=O)N[C@@H](Cc2ccccc2)C(=O)N[C@@H](Cc2c[nH]c3ccccc23)C(=O)N[C@@H](CC(N)=O)C(=O)N1 (stereo in doubt)
4. CC[C@@H]1NC(=O)[C@H](Cc2ccccc2)NC(=O)[C@H](Cc2ccc(O)cc2)NC(=O)CCSSC[C@@H](C(=O)N2CCC[C@H]2C(=O)N[C@@H](CCCN=C(N)N)C(=O)NCC(N)=O)NC(=O)[C@H](CC(N)=O)NC1=O (stereo in doubt)
5. NC(=O)CNC(=O)[C@H](CCCN=C(N)N)NC(=O)[C@@H]1CCCN1C(=O)[C@@H]1CSSCCC(=O)N[C@@H](Cc2ccc(O)cc2)C(=O)N[C@@H](Cc2ccccc2)C(=O)NCC(=O)N[C@@H](CC(N)=O)C(=O)N1

*A*
1. 22.5 nM
2. 436 nM
3. 75 nM
4. 19.7 nM
5. 276 nM
